# target.system: MC3R (Homo sapiens, UniProt P41968)
# Sequence (P41968 whole entry): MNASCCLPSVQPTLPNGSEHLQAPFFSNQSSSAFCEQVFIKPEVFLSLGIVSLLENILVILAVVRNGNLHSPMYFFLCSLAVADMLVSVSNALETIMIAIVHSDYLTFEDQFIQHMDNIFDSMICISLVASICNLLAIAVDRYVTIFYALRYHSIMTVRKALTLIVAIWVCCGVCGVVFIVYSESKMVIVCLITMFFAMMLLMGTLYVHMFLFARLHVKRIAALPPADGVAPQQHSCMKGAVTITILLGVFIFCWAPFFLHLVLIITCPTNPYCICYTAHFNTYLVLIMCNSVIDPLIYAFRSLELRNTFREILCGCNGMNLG
# assay.details: cAMP assay (β-galactosidase reporter, cAMP Hunter), MC3R
# Type: cell-based
# measurement.context: EC50(MC3R)/EC50(MC4R)
result.type: Ratios of EC50 values MC ¾
Enter a number only.

{"molecule": "CC[C@@H](C)[C@H]1NC(=O)[C@@H](NC(=O)[C@H](CCCNC(=N)N)NC(C)=O)CSSC[C@@H](C(N)=O)NC(=O)[C@H](Cc2c[nH]c3ccccc23)NC(=O)[C@H](CCCNC(=N)N)NC(=O)[C@@H](Cc2ccccc2)NC(=O)[C@H](Cc2c[nH]cn2)NC1=O [Compound 2]", "Ratios of EC50 values MC ¾": 0.96}

Continue with the molecule presented below.
Value of Ratios of EC50 values MC ¾ reported for the molecule CC(=O)N[C@@H](CCCNC(=N)N)C(=O)N[C@H]1CSSC[C@@H](C(N)=O)NC(=O)[C@H](Cc2c[nH]c3ccccc23)NC(=O)[C@H](CCCNC(=N)N)NC(=O)[C@@H](Cc2ccccc2)NC(=O)[C@H](Cc2cn(C)cn2)NC(=O)[C@@H](C)NC1=O [Compound 6] is 6
